Listed here are compounds together with their documented INH.
target.or.system: Cytochrome P450 2C19 (Homo sapiens, UniProt P33261)
Sequence (P33261 whole entry): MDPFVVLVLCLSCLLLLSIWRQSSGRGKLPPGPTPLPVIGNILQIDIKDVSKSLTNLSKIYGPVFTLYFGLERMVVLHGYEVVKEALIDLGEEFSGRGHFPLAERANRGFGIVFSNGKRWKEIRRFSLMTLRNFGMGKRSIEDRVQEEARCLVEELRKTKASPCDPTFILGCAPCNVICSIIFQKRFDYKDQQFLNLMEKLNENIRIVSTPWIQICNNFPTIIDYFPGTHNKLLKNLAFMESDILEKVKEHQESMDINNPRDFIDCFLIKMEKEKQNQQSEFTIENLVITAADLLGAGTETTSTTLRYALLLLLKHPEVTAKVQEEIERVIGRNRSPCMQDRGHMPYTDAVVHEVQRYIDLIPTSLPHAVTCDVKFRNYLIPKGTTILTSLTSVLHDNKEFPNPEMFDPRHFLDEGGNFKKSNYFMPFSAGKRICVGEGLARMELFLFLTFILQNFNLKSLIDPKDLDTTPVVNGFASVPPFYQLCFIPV
experimental.details: Inhibition of CYP2C19 (unknown origin) by LC-MS/MS analysis
Format: ADME

compound: COc1ccc(C(SC[C@H](N)C(=O)O)(c2ccccc2)c2ccccc2)cc1
unit.annotation: µM
censor.symbol: =
INH: 6.3
//
compound: Cc1ccc(C(=O)N(CCCN)[C@@H](c2oc3cc(Cl)ccc3c(=O)c2Cc2ccccc2)C(C)C)cc1
unit.annotation: µM
censor.symbol: >
INH: 25
//
compound: Cc1ccc(C(CCC(N)C(=O)O)(c2ccccc2)c2ccccc2)cc1C (racemic)
unit.annotation: µM
censor.symbol: >
INH: 25
//
compound: Cc1ccc(C(SC[C@H](N)C(=O)O)(c2ccccc2)c2ccccc2)cc1C
unit.annotation: µM
censor.symbol: =
INH: 7.9
//
compound: COc1ccc(C(CCCN)(c2ccccc2)c2ccccc2)cc1
unit.annotation: µM
censor.symbol: =
INH: 2.8
//
compound: CCc1cc(C(SC[C@H](N)C(=O)O)(c2ccccc2)c2ccccc2)ccc1C
unit.annotation: µM
censor.symbol: >
INH: 25
